Species on record: Cavia porcellus
Experiment: Effective concentration for stimulation of [3H]phosphoinositide formation in guinea pig synaptoneurosomes expressing alpha-1 receptor
Assay type: functional
# EC50 listing for each entry below
readout label: EC50 (µM)

compound	obs value
CNCC(O)c1cc(F)c(O)c(O)c1F (stereo not given)	2.6
CNC[C@H](O)c1cccc(O)c1	6
CNCC(O)c1cc(O)ccc1F (stereo not given)	8
NCC(O)c1cc(F)c(O)c(O)c1F (stereo not given)	83
CNCC(O)c1cccc(O)c1F (stereo not given)	80
CNCC(O)c1ccc(F)c(O)c1 (stereo not given)	16
NCC(O)c1cc(O)c(O)cc1F (stereo not given)	4.2
CNCC(O)c1c(F)ccc(O)c1F (stereo not given)	4.3
